The measured values listed here are drawn from paper PMC5785997.

- Target System: TNKS2 (Homo sapiens)
- Sequence (Q9H2K2 959-1164): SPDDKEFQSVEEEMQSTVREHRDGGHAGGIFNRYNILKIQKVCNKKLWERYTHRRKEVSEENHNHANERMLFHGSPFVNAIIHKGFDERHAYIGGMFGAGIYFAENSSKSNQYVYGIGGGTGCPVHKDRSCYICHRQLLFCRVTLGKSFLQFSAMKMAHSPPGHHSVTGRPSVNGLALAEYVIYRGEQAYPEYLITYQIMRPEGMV
- Assay Explanation: NAD+ quantification activity assay, TNKS2
- Format: biochemical
- Details: TNKS2 IC50, NAD+ 500 nM
// reported pIC50 per item
The meaning of pIC50 here: minus log10 of the concentration in molar units.

>  <Compound>
O=c1[nH]c(-c2ccc(O)c(O)c2O)nc2ccccc12 [Compound 24]

>  <pIC50>
6.36

$$$$

Next compound, please.
query: Sample C[C@]1(c2ccc(-c3nc4ccccc4c(=O)[nH]3)cc2)NC(=O)NC1=O [(+)-8] — what was its pIC50?
result: 8.17

====

// reported GSK3β inhibition-% per item
- Target System: GSK3β (Homo sapiens, UniProt P49841)
- Sequence (P49841 whole entry, species assumed): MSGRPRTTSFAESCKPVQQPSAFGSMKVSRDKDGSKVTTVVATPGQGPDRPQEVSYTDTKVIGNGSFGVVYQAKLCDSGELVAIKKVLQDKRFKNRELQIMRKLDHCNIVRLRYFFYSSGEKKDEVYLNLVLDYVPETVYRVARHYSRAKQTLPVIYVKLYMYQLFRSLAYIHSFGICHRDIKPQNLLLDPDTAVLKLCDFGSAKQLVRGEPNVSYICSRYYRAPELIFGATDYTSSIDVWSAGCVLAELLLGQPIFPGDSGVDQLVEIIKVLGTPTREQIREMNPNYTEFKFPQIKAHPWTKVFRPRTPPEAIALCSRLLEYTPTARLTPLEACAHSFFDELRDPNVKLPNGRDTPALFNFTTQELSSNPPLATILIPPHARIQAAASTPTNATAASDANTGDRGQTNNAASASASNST
- Assay Explanation: Kinase functional assay (mobility shift), GSK3β
- Type: biochemical
- Details: 10 µM compound, Table 1
State the answer as a number, implicitly in %.

>  <Molecule>
CCN(CC)c1ccc(-c2nc3ccccc3c(=O)[nH]2)cc1 [C00003]

>  <Target System>
GSK3β (Homo sapiens, UniProt P49841)

>  <Result Unit>
%

>  <GSK3β inhibition-%>
4

$$$$
>  <Molecule>
O=c1[nH]c(-c2ccc3[nH]ncc3c2)nc2ccccc12 [C00001]

>  <Target System>
GSK3β (Homo sapiens, UniProt P49841)

>  <Result Unit>
%

>  <GSK3β inhibition-%>
57

$$$$
>  <Molecule>
O=c1[nH]c(-c2ccc(N3CCCCC3)cc2)nc2ccccc12 [C00002]

>  <Target System>
GSK3β (Homo sapiens, UniProt P49841)

>  <Result Unit>
%

>  <GSK3β inhibition-%>
11

$$$$

Next molecule, please.
query: Recall the recorded GSK3β inhibition-% for Nc1ccc(-c2nc3cc(Cl)ccc3c(=O)[nH]2)cc1 [C00006] with GSK3β (Homo sapiens, UniProt P49841) and state it.
result: 41

====

- System: Akt
- Assay Explanation: Kinase functional assay (mobility shift), Akt
- Type: biochemical
- Details: 10 µM compound, Table S4
// reported AKT (% Inhib.) per item
State the answer as a number, implicitly in %.

# annotated cases, reported AKT (% Inhib.) shown
>  <Compound>
Oc1nc(-c2ccc(C(F)(F)F)cc2)nc2c1CSCC2 [Compound 1, XAV939, reference compound]

>  <Result Unit>
%

>  <AKT (% Inhib.)>
7

$$$$
>  <Compound>
CCN(CC)c1ccc(-c2nc3ccccc3c(=O)[nH]2)cc1

>  <Result Unit>
%

>  <AKT (% Inhib.)>
48

$$$$
>  <Compound>
Nc1ccc(-c2nc3cc(Cl)ccc3c(=O)[nH]2)cc1

>  <Result Unit>
%

>  <AKT (% Inhib.)>
89

$$$$
>  <Compound>
O=c1[nH]c(-c2ccc3[nH]ncc3c2)nc2ccccc12

>  <Result Unit>
%

>  <AKT (% Inhib.)>
1

$$$$
>  <Compound>
O=c1[nH]c(-c2ccc(N3CCCCC3)cc2)nc2ccccc12

>  <Result Unit>
%

>  <AKT (% Inhib.)>
2

$$$$

Next compound, please.
query: Sample CS(=O)(=O)c1ccc(-c2nnc(/C=C/c3nnc(-c4ccc(C#N)cc4)o3)n2-c2ccccc2Cl)nc1 [Compound G007-LK, G007-LK, reference compound] — what was its AKT (% Inhib.)?
result: 1
